system: K562 CRISPRi cells; experiment: Constant region variant library pooled growth screen, K562; assay type: cell-based, human; conditions: sgRNA constant region variants; activity relative to the un-modified constant region cr995
Mean relative activity by entry:
PROPERTY: Mean relative activity

{"columns": ["MOLECULE", "PROPERTY", "MEASURED_NUMBER"],
 "data": [
  ["cr267 (nucleic acid, listed as DNA, chemistry not fully specified) guide: GTTTAAGAGCTAAGCTGCAAACAGCATAGCAAGTTTAAATAAGGCTAGTCCGTTATCAACTTGAAAAAGTGGCACCGAGTCGGTGCT", "Mean relative activity", 0.9552],
  ["cr843 (nucleic acid, listed as DNA, chemistry not fully specified) guide: GTTTAAGAGCTAAGCTGGAATCAGCATAGCAAGTTTAAATAAGGCTAGTCCGTTATCAACTTGAAAAAGTGGCACCGAGTCGGTGCT", "Mean relative activity", 0.9823],
  ["cr159 (nucleic acid, listed as DNA, chemistry not fully specified) guide: GTTTAAGAGCTAAGCTGGAAACAGCATAGCTAGTTTAAATAAGGCTAGTCCGTTATCAACTTGAAAAAGTGGCACCGAGTCGGTGCT", "Mean relative activity", 0.9739],
  ["cr977 (nucleic acid, listed as DNA, chemistry not fully specified) guide: GTTTAAGAGCTAAGCTGGAAACAGCATAGCAAGTTTAAATAAGGCTAGTCCGTTATCATCTTGAAAAAGAGGCACCAAGTTGGTGCT", "Mean relative activity", 0.9127]
]}
